Recorded values, source patent US20260242735A1.

Attribute: Mean % WT Binding
Subject of test: human CD33 F43L (human, UniProt P20138 18-364)
Sequence (P20138 18-364 F43L limits assumed): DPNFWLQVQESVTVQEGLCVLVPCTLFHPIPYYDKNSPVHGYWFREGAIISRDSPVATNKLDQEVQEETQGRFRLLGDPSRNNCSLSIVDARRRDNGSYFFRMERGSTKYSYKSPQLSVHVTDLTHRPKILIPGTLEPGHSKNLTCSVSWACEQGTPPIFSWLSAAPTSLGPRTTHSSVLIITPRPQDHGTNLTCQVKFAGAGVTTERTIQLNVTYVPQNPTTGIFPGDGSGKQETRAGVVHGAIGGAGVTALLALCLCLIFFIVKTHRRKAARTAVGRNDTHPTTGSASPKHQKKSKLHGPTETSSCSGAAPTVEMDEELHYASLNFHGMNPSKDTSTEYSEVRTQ
Run description: flow cytometry, mutant on cells, IgG
State just the number; it will be interpreted in % WT binding.

Known results for binders:
Binder: Refmab #2 (antibody, human IgG1, V domains shown, Tested in IgG format; human IgG1 Fc silent (PG-LALA)) VH: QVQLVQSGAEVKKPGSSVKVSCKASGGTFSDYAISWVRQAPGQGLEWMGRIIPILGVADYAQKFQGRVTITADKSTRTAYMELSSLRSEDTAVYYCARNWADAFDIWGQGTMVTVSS VL: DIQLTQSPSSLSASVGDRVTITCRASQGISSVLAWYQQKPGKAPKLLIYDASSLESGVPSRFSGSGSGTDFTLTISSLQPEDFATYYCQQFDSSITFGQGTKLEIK
Mean % WT Binding [% WT binding]: 45.8
//
Binder: Refmab #1 (antibody, human IgG1, V domains shown, Tested in IgG format; human IgG1 (Absolute Antibody hP67.6, Cat. No. Ab00283-10.0); also called hP67.6) VH: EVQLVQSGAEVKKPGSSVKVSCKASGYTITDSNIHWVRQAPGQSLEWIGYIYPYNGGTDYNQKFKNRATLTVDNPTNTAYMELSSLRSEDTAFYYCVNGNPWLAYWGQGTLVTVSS VL: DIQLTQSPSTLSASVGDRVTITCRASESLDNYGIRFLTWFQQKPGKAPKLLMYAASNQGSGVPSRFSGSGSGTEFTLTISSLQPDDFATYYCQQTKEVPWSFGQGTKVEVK
Mean % WT Binding [% WT binding]: 111
//
Binder: Refmab #4 (antibody, human IgG1, V domains shown, Tested in IgG format; human IgG1 Fc silent (PG-LALA)) VH: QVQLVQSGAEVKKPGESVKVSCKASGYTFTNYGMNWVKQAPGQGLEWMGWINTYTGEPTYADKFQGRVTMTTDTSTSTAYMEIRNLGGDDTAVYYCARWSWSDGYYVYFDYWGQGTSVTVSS VL: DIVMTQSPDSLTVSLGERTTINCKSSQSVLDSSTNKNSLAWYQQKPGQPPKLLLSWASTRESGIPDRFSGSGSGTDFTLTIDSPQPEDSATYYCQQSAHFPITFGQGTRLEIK
Mean % WT Binding [% WT binding]: 100

Note: attention shifts to another entry.
Prompt line: Which Mean % WT Binding value is on record for Refmab #3 (antibody, human IgG1, V domains shown, Tested in IgG format; human IgG1 Fc silent (PG-LALA)) VH: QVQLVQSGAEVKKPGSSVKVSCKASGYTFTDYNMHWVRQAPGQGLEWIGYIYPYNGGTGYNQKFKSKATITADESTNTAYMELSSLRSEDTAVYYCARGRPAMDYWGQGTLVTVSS VL: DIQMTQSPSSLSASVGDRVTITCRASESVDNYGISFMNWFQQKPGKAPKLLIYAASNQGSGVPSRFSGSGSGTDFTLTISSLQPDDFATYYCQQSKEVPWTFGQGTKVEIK ?
Response line: 111
